Origin of measurements: PubChem BioAssay (NCI)

Below, each of the molecules is paired with its reported TGI value.
System: TK-10 renal
PROTOCOL TEXT: NCI tumour cell line growth inhibition, 48 h
MEASUREMENT LABEL: TGI

> print(dat)
                                    molecule   observed
 1  Cc1ccc(-n2c3c(c4c(CN(C)C)c(O)ccc42)CCc2ccccc2C3=O)cc1    35.6 µM
 2  O=C(COc1ccc(OCC(=O)N2C(=O)CSC2=Nc2ccccc2)cc1)N1C(=O)CSC1=Nc1ccccc1   > 100 µM
 3  Clc1ccc2c(c1)C1C(CO2)C(c2ccccc2)=NN1c1ccccc1 (configuration not stated)   > 100 µM
 4  Cc1c(C)c2c(c(N)c1C#N)C(=O)N(Nc1ccccc1)C2=O   > 100 µM
 5  CC(C)(C)c1cc(-c2cc(C(C)(C)C)n(-c3ccccc3)n2)nn1-c1ccccc1   > 100 µM
 6                  N=C(N)N1CCC(N2CCOCC2)CC1   > 100 µM
 7  O=C(CSc1nc2ccccc2s1)c1sc2sc3ccccc3[n+]2c1[O-]   > 100 µM
 8                  Cc1ccc2ccccc2c1NC1=NCCO1   > 100 µM
 9  Cc1ccc(NC(=O)CSc2nc(C)nc3c2sc(=S)n3-c2ccccc2)cc1    > 10 µM
10  c1ccc2[nH]c(-c3ccc(NN=Nc4ccncc4)cc3)nc2c1   > 100 µM
11  CC(C)=NN/C(=N\S(=O)(=O)c1ccc(C)cc1)Nc1ccc(Cl)cc1   > 100 µM
12  C=CC(=O)N1CCN(c2nc(=O)n(-c3c(C)ccnc3C(C)C)c3nc(-c4c(O)cccc4F)c(F)cc23)[C@@H](C)C1  > 90.9 µM
